molecular target: Growth hormone-releasing hormone receptor (Rattus norvegicus) (UniProt Q02644); assay: Potency for growth hormone releasing hormone receptor (GHRFR) relative to human GHRH(1-40)OH- in the rat pituitary cell culture assay; format: functional, cell-based; conditions: Pituitary gland cell
Sequence (Q02644 whole entry): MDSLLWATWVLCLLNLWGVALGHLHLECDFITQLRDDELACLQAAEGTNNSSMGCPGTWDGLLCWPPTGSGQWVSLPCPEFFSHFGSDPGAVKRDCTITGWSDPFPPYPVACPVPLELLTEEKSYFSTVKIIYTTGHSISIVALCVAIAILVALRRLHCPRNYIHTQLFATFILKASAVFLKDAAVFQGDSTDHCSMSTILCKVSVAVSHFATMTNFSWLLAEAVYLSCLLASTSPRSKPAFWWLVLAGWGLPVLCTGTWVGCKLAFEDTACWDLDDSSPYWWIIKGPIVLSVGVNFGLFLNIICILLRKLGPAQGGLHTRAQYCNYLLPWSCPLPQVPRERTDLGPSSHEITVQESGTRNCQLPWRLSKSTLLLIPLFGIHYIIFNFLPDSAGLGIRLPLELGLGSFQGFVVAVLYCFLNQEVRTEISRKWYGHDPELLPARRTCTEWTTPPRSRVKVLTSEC
Quick rule for you: Relative potency under 0.4 gets condition met, anything else gets condition not met.

Substance	Assigned category
H-YADAIFTNSYRKVLGQLSARKLLADIMSR-NH2	condition not met

**Q:** Strictly below 0.4 in Relative potency? H-YADAIFTNSYRKVLGQLSARKLLQDIMSA-NH2
**A:** condition not met

**Q:** Strictly below 0.4 in Relative potency? H-YADAIFTNAYRKVLGQLSARKLLQDIMSR-NH2
**A:** condition not met

**Q:** Strictly below 0.4 in Relative potency? H-YADAIFTNSYRKVAGQLSARKLLQDIMSR-NH2
**A:** condition met

**Q:** Strictly below 0.4 in Relative potency? H-YADAIFTNSYRAVLGQLSARKLLQDIMSR-NH2
**A:** condition met

**Q:** Strictly below 0.4 in Relative potency? H-YADAIFTNSYRKALGQLSARKLLQDIMSR-NH2
**A:** condition met

**Q:** Strictly below 0.4 in Relative potency? H-YADAIFTNSYRKVLGQLSARKLLQDAMSR-NH2
**A:** condition not met

**Q:** Strictly below 0.4 in Relative potency? H-YADAIFTASYRKVLGQLSARKLLQDIMSR-NH2
**A:** condition not met

**Q:** Strictly below 0.4 in Relative potency? H-YADAIFTNSYRKVLGQLSARALLQDIMSR-NH2
**A:** condition met

**Q:** Strictly below 0.4 in Relative potency? H-YADAIFTNSYRKVLGQLSAAKLLQDIMSR-NH2
**A:** condition met

**Q:** Strictly below 0.4 in Relative potency? H-YADAIFTNSYRKVLAQLSARKLLQDIMSR-NH2
**A:** condition not met
